tested on: Malme-3M; assay: Growth inhibition of human MALME-3M cells after 48 hrs by sulforhodamine B assay; format: functional
Property: GI50 (µM)
Give the value in µM but do not write µM after it.

Task: State the recorded GI50 for this entry: C=C1c2c(C)nn(-c3ccccc3)c2N(C)C23CC1C1(C)c4c(C)nn(-c5ccccc5)c4N(C)C(C)(CC12)C3 (centres undefined)
Result: 4.19

Task: Now the same for C=C1c2c(C)nn(-c3ccc(OC)cc3)c2N(C)C23CC1C1(C)c4c(C)nn(-c5ccc(OC)cc5)c4N(C)C(C)(CC12)C3 (centres undefined)
Result: 3.24

---
Task: State the recorded GI50 for this entry: COc1ccc(-n2nc(C)c3c2N(C)C2(C)CC4C3(C)C3CC4(C2)N(C)c2c(c(C)nn2-c2ccc(OC)cc2)C3C)cc1 (centres undefined)
Result: 6.34

From: ChEMBL document CHEMBL3102801
